# TARGET_OR_SYSTEM: alpha 2A adrenergic receptor (Homo sapiens)
# Construct: expressed in transfected cells; host or cells: NIH-3T3 cells, transient cotransfection by calcium phosphate
# Sequence (P08913 whole entry): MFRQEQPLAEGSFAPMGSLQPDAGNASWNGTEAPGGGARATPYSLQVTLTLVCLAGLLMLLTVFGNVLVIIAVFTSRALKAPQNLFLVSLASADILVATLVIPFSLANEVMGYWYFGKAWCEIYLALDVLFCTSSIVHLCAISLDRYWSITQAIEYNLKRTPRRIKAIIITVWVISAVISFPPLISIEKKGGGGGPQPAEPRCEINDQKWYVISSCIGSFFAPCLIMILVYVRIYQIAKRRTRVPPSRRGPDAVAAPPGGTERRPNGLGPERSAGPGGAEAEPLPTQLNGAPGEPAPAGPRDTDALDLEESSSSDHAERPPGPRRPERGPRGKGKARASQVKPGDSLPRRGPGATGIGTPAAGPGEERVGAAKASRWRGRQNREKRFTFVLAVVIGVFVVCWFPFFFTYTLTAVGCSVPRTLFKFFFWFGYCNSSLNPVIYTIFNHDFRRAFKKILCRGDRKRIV
# TEST_PROTOCOL: RSAT (Receptor Selection and Amplification Technology) assay, alpha 2A
# Type: cell-based
# APPLIED_CONDITIONS: ratio of maximal effect to that of standard full agonist brimonidine
The label 1 is reserved for efficacy or intrinsic activity (value in parentheses) Alpha 2A strictly under 0.4; 0 covers values equal to or above it.

>  <GIVEN_SMILES>
Cc1cc(Cl)c(F)c(CNC(=S)NCCO)c1

>  <CAT>
1

$$$$
>  <GIVEN_SMILES>
OCCNC(=S)NCc1cccc(I)c1F

>  <CAT>
0

$$$$

Qu. Please let me know if OCCNC(=S)NCc1cccc(Br)c1F shows efficacy or intrinsic activity (value in parentheses) Alpha 2A below 0.4.
Ans. 0

Qu. Please let me know if COc1ccc(Cl)cc1CNC(=S)NCCO shows efficacy or intrinsic activity (value in parentheses) Alpha 2A below 0.4.
Ans. 1

Qu. Please let me know if OCCNC(=S)NCc1cccc(I)c1 shows efficacy or intrinsic activity (value in parentheses) Alpha 2A below 0.4.
Ans. 0

Qu. Please let me know if OCCNC(=S)NCc1cccc(Br)c1 shows efficacy or intrinsic activity (value in parentheses) Alpha 2A below 0.4.
Ans. 1
